Test system: SNB-75 CNS
Experiment: NCI-60 one-dose screen, 48 h (100 = growth as untreated, 0 = no growth, -100 = all killed)
Settings: 10 µM unless noted
The panel holds about 83,000 compounds, 20% with a hit somewhere; the sample as a whole holds those more often.
quantity-kind: growth (%)

- molecular-string: "O=c1c2cc(-c3ccc(F)cc3F)ccc2n(O)c(=O)n1-c1cccc(C(F)(F)F)c1"
  system: "SNB-75 CNS"
  recorded-value: -19.4
- molecular-string: "NCCNC(=O)c1cccc(COc2ccccc2NC(=O)c2cc(Br)c(Br)[nH]2)c1"
  system: "SNB-75 CNS"
  recorded-value: 94.1
- molecular-string: "Cc1cc2nc3c4cc(C#N)ccc4n(CCN(C)C)c3nc2cc1C"
  system: "SNB-75 CNS"
  recorded-value: -8.73
- molecular-string: "Cc1ccc(C(=O)Nc2ccc(CNCCN3CCNCC3)c(C(F)(F)F)c2)cc1C#Cc1cnc2cccnn12"
  system: "SNB-75 CNS"
  recorded-value: 42.5
- molecular-string: "CN1CCN(CCCCCC(=O)Nc2nc(-c3cccc(NS(=O)(=O)c4cccc5c(N(C)C)cccc45)c3)cs2)CC1"
  system: "SNB-75 CNS"
  recorded-value: 76.7
- molecular-string: "C/C(=N\\NC(N)=S)c1nnn(-c2ccc([N+](=O)[O-])cc2)c1C"
  system: "SNB-75 CNS"
  recorded-value: 87.3
- molecular-string: "O=S(=O)(NCCCNc1nccc(-c2[nH]c(-c3ccccc3)nc2-c2ccc(F)c(O)c2)n1)c1cccc2ccccc12"
  system: "SNB-75 CNS"
  recorded-value: 75.4
- molecular-string: "Cc1csc(/N=C(N)/N=C(\\N)c2cccc(Br)c2)n1"
  system: "SNB-75 CNS"
  recorded-value: 72.8
- molecular-string: "C#Cc1cc(OC)c(C(=O)Nc2ccc(F)cc2C(=O)Nc2cccc(S(=O)(=O)C(F)(F)F)c2)cn1"
  system: "SNB-75 CNS"
  recorded-value: -80.4
- molecular-string: "NC(N)=NS(=O)(=O)c1ccc(N=Nc2c(N)nn(-c3ccc([N+](=O)[O-])cc3[N+](=O)[O-])c2N)cc1"
  system: "SNB-75 CNS"
  recorded-value: 94.7
